- System: A549/ATCC NSCLC
- assaySummary: NCI-60 one-dose screen, 48 h
- studyConditions: 10 µM unless noted
This is part of a sample that, as a whole, favours compounds with a hit. Of some 83,000 tested, about 20% had one in any assay. Activity calls are given as the source filed them. The calls were made as follows: active = growth percent below 10; inactive = the rest.
I would appreciate it if you answered using one of these outcomes: active, inactive

Q: Please state the recorded outcome for this molecule: CCOC(=O)c1c(Nc2ccccc2)nn2c(-c3ccc(Cl)cc3)ccnc12
A: inactive

Q: State the result this test recorded for COc1cc2nc(Cl)nc(Nc3cccc(C4=Nc5c(N)nc(N)nc5NC(c5ccccc5)C4)c3)c2cc1OC (stereo not drawn) .
A: inactive

Q: What is the recorded call for this molecule in the test? CC1=N[C@@H]2CN(C(=O)OC(C)(C)C)C[C@@H]2n2c1cc1ccccc1c2=O
A: inactive

Q: So what was the verdict on CCn1c(SCC(=O)Nc2cccc(C(=O)/C=C/c3ccccc3Cl)c2)nc2ccccc2c1=O in this test?
A: inactive

Q: Could you please tell me the result logged for CN1CCN(Cc2ccc(NC(=O)c3cncc(C#Cc4cnc5ccc(OCC6(C)COC6)nn45)c3)cc2C(F)(F)F)CC1 in this assay?
A: active

Q: Outcome logged for CNC(=O)c1cc(Oc2ccc3nc(NC(=O)c4cccc(OC(F)(F)F)c4)sc3c2)ccn1 in this assay:
A: inactive

Q: Just curious, what result did O=C(Nc1ccc(Br)cc1)Nc1nc2ccc([N+](=O)[O-])cc2s1 get here?
A: active

Q: Which outcome did this test record for the molecule O=C1C(c2ccccc2)=C(N2CCc3ccccc32)OC1(Cl)Cl ?
A: inactive

Q: So what was the verdict on CS(=O)(=O)c1ccc(-n2cc(/C=N/O)c(-c3ccccc3)n2)cc1 in this test?
A: inactive

Q: Could you check what this test reported for Oc1ccc(CSc2nnc(-c3ccc(Cl)cc3)n2-c2ccccc2)c2cccnc12 ?
A: inactive

Q: Assay result, entry O=C(O)c1ccc(-n2cc(CNc3cccc(Cl)c3)c(-c3ccc(F)cc3)n2)cc1 — outcome?
A: inactive

Q: Record lookup: outcome of this test for O=c1[nH]c2ccccc2cc1CSc1ccccc1Nc1nccc(-c2ccc(Cl)cc2)n1 ?
A: inactive

Q: Tell me the assay call for CC1(C)[C@@H](O)CC[C@]2(C)[C@H]3CC[C@@H]4[C@H]5[C@H](C(=O)/C=C\c6ccccn6)CC[C@]5(O)CC[C@@]4(C)[C@]3(C)CC[C@@H]12 please.
A: inactive

Q: Hi, sorry to bother you, what did the test record for Nc1cc(F)ccc1NC(=O)c1ccc(NC(=O)C/C=C/c2cccnc2)cc1 ?
A: inactive

Q: // param item: O=C(c1ccc(Cl)cc1)C1[C@H](c2ccc(Cl)cc2)[C@@H](c2ccccc2)NC12C(=O)Nc1ccccc12 (stereo partly drawn) ; yields the recorded call
A: inactive

Q: Dear colleague, could you share the recorded outcome for COc1cc2oc(-c3cccc(N)c3)cc(=O)c2c(OC)c1OC when you have a moment?
A: inactive

Q: I'd appreciate the recorded outcome for O=C(CN1CCN(c2cc(=O)n(-c3ccccc3)c3ccccc23)CC1)Nc1cccc(C(F)(F)F)c1 from this test.
A: inactive

Q: Test call, this molecule: COc1cc(-c2nn(C(C)(C)C)cc2-c2ccnc(NCCCNS(=O)(=O)c3ccccc3)n2)ccc1Cl
A: inactive
